assay: qHTS to identify inhibitors of the type 1 interferon - major histocompatibility complex class I in skeletal muscle: primary screen against the NCATS Mechanism Interrogation Plate v5.0 (MIPE) Libary (AID 1347411); settings: iHSKM cells + IFN-b, HiBiT-tagged MHC-I luminescence, 24 h; series mostly up to 45.8 µM; also: nearly all actives have a fitted effect of over 65% in size; also: potency is read from the fitted curve at half-maximal effect
Results filed as inconclusive are left out. Calls of active or inactive are those of the source. Calls follow the shape of the dose curve; as a rule, active = well fitted inhibition curve with a large enough effect; inconclusive = small, poorly fitted or top-dose-only effect; inactive = no such curve, though single readings can be large or run the other way.
RECORDED_METRIC: Potency

- COMPOUND: "O=C(O)C[C@H](O)C[C@H](O)/C=C/c1c(C2CC2)nc2ccccc2c1-c1ccc(F)cc1"
  Potency: "inactive"
- COMPOUND: "O=C(O)c1cnn(-c2nc3cc(OC(F)(F)F)c(Cl)cc3[nH]2)c1"
  Potency: "inactive"
- COMPOUND: "CCOC(=O)[C@H]1O[C@@H]1C(=O)N[C@@H](CC(C)C)C(=O)NCCC(C)C"
  Potency: "inactive"
- COMPOUND: "CC1(C)O[C@@H]2C[C@H]3[C@@H]4CCC5=CC(=O)C=C[C@]5(C)[C@H]4[C@@H](O)C[C@]3(C)[C@]2(C(=O)CO)O1"
  Potency: "inactive"
- COMPOUND: "O=C(NC[C@H](O)CN1CCc2ccccc2C1)c1cc(NC2COC2)ncn1"
  Potency: "inactive"
- COMPOUND: "CCCCN(CCCC)C(=O)CN1C[C@H](c2ccc3c(c2)OCO3)[C@@H](C(=O)O)[C@@H]1c1ccc(OC)cc1"
  Potency: "inactive"
- COMPOUND: "COc1cc2c(cc1O)CCN[C@]21CS[C@@H]2c3c(OC(C)=O)c(C)c4c(c3[C@H](COC1=O)N1[C@@H]2[C@H]2c3c(cc(C)c(OC)c3O)C[C@@H]([C@@H]1O)N2C)OCO4"
  Potency: "0.0848 µM (active)"
- COMPOUND: "NS(=O)(=O)NCCNc1nonc1C(=Nc1ccc(F)c(Br)c1)NO"
  Potency: "inactive"
- COMPOUND: "Cc1cc(Nc2ncc(Cl)c(Nc3ccccc3S(=O)(=O)C(C)C)n2)c(OC(C)C)cc1C1CCNCC1"
  Potency: "20.8 µM (active)"
- COMPOUND: "O=C(NCC(=O)N1CC[C@H](NC2CCC(O)(c3ccc(-c4ncccn4)cn3)CC2)C1)c1cccc(C(F)(F)F)c1 (stereo partly drawn)"
  Potency: "inactive"

Recorded Potency for CC(C)N(C[C@H]1O[C@@H](n2cnc3c(N)ncnc32)[C@H](O)[C@@H]1O)C1CC(CCc2nc3ccc(C(C)(C)C)cc3[nH]2)C1 (stereo partly drawn) , please? inactive

Recorded Potency for CC1=C(/C=C/C(C)=C/C=C/C(C)=C/C=C/C=C(C)/C=C/C=C(C)/C=C/C2=C(C)CCCC2(C)C)C(C)(C)CCC1 , please? inactive

Recorded Potency for Cc1c(-c2ccnn2C)cc(C(=O)NCc2ccc(S(C)(=O)=O)cn2)c(=O)n1-c1cccc(C(F)(F)F)c1 , please? inactive
